Values compiled from ChEMBL document CHEMBL1138052.

Assay: Protein binding in rat plasma
Type: ADME, organism-based
Conditions: read-out: PPB (converted)
Provide the recorded fraction unbound for the entries that follow.
When you answer, write just the number.

input: # query: fraction unbound of entry O=C(O)c1c(NS(=O)(=O)c2ccccc2)ccc2c1CCCC2
output: 0.002

input: Tell me the measured fraction unbound of Cc1ccc(NS(=O)(=O)c2ccccc2)c(C(=O)O)c1 , please.
output: 0.003
